# ASSAY_DETAILS: in vivo
# Design: species or system mice
# EXPERIMENTAL_SETUP: C57, mouse, iv, 0.037 MBq, total radioactivity, Uptake ratio Tumor/lung
Positions of bridges follow the written chain, without caps; N, C: chain ends. Non-standard residues stand in square brackets, D forms with d. Residues, ends and D or L forms follow the SMILES beside them. *: point of attachment. NOTA = O=C(O)CN1CCN(CC(=O)O)CCN(CC(=O)*)CC1; Nle = CCCC[C@H](N)C(=O)O
ENDPOINT_NAME: tissue to tissue ratio at 24 h
Would you mind answering with just the numeric figure?

CCCC[C@H](NC(=O)COCCOCCNC(=O)CN1CCN(CC(=O)O)CCN(CC(=O)O)CC1)C(=O)N[C@H]1CC(=O)NCCCC[C@@H](C(N)=O)NC(=O)[C@H](Cc2c[nH]c3ccccc23)NC(=O)[C@H](CCCNC(=N)N)NC(=O)[C@@H](Cc2ccccc2)NC(=O)[C@H](Cc2c[nH]cn2)NC1=O [^67Cu-NOTA-PEG2Nle-CycMSHhex, metal not drawn]: 26.1

Field: next compound
Tell me measured tissue to tissue ratio at 24 h for CCCC[C@H](NC(=O)CNC(=O)CNC(=O)CN1CCN(CC(=O)O)CCN(CC(=O)O)CC1)C(=O)N[C@H]1CC(=O)NCCCC[C@@H](C(N)=O)NC(=O)[C@H](Cc2c[nH]c3ccccc23)NC(=O)[C@H](CCCNC(=N)N)NC(=O)[C@@H](Cc2ccccc2)NC(=O)[C@H](Cc2c[nH]cn2)NC1=O [^67Cu-NOTA-GGNle-CycMSHhex, ^67Cu-NOTA-GlyGlyNle-CycMSHhex, metal not drawn] ({NOTA}-GG[Nle]DH[dF]RWK-NH2; lactam 4-9) please. 18.2
